All figures here come from the supplement of paper PMC5998384.

# thermal stability score listing for each entry below
system: HeLa Kyoto; assay: thermal stability score vs G1/S (z-score of summed log2 fold changes over temperatures); higher = more thermally stable than in G1/S; conditions: cell cycle stage: early G1 (4.5 h after nocodazole release);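 note: synchronized HeLa Kyoto cells, proteins quantified by TMT10plex mass spectrometry, three biological replicates, mitosis taken 0.5 h after nocodazole release, G1/S directly after double thymidine block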
I'd appreciate a reply containing only the number, no unit.

Exercise: Report measured thermal stability score; entry is MVQAWYMDDAPGDPRQPHRPDPGRPVGLEQLRRLGVLYWKLDADKYENDPELEKIRRERNYSWMDIITICKDKLPNYEEKIKMFYEEHLHLDDEIRYILDGSGYFDVRDKEDQWIRIFMEKGDMVTLPAGIYHRFTVDEKNYTKAMRLFVGEPVWTAYNRPADHFEARGQYVKFLAQTA [ADI1]
Key: -0.911

Exercise: Query thermal stability score for MERKISRIHLVSEPSITHFLQVSWEKTLESGFVITLTDGHSAWTGTVSESEISQEADDMAMEKGKYVGELRKALLSGAGPADVYTFNFSKESCYFFFEKNLKDVSFRLGSFNLEKVENPAEVIRELICYCLDTIAENQAKNEHLQKENERLLRDWNDVQGRFEKCVSAKEALETDLYKRFILVLNEKKTKIRSLHNKLLNAAQEREKDIKQEGETAICSEMTADRDPVYDESTDEESENQTDLSGLASAAVSKDDSIISSLDVTDIAPSRKRRQRMQRNLGTEPKMAPQENQLQEKENSRPDSSLPETSKKEHISAENMSLETLRNSSPEDLFDEI [XRCC4]
Key: -0.551

Next:
Exercise: Identify measured thermal stability score associated with MSGDTCLCPASGAKPKLSGFKGGGLGNKYVQLNVGGSLYYTTVRALTRHDTMLKAMFSGRMEVLTDKEGWILIDRCGKHFGTILNYLRDDTITLPQNRQEIKELMAEAKYYLIQGLVNMCQSALQDKKDSYQPVCNIPIITSLKEEERLIESSTKPVVKLLYNRSNNKYSYTSNSDDHLLKNIELFDKLSLRFNGRVLFIKDVIGDEICCWSFYGQGRKLAEVCCTSIVYATEKKQTKVEFPEARIYEETLNVLLYETPRVPDNSLLEATSRSRSQASPSEDEETFELRDRVRRIHVKRYSTYDDRQLGHQSTHRD [TNFAIP1]
Key: 1.18e-17

Exercise: Determine its reported thermal stability score: MREYKVVVLGSGGVGKSALTVQFVTGSFIEKYDPTIEDFYRKEIEVDSSPSVLEILDTAGTEQFASMRDLYIKNGQGFILVYSLVNQQSFQDIKPMRDQIIRVKRYERVPMILVGNKVDLEGEREVSYGEGKALAEEWSCPFMETSAKNKASVDELFAEIVRQMNYAAQPNGDEGCCSACVIL [RAP2B]
Key: -0.0087

Exercise: Supply reported thermal stability score belonging to this sequence: MEGGLGRAVCLLTGASRGFGRTLAPLLASLLSPGSVLVLSARNDEALRQLEAELGAERSGLRVVRVPADLGAEAGLQQLLGALRELPRPKGLQRLLLINNAGSLGDVSKGFVDLSDSTQVNNYWALNLTSMLCLTSSVLKAFPDSPGLNRTVVNISSLCALQPFKGWALYCAGKAARDMLFQVLALEEPNVRVLNYAPGPLDTDMQQLARETSVDPDMRKGLQELKAKGKLVDCKVSAQKLLSLLEKDEFKSGAHVDFYDK [SPR]
Key: -5.72

Exercise: # return recorded thermal stability score for input MACAAARSPADQDRFICIYPAYLNNKKTIAEGRRIPISKAVENPTATEIQDVCSAVGLNVFLEKNKMYSREWNRDVQYRGRVRVQLKQEDGSLCLVQFPSRKSVMLYAAEMIPKLKTRTQKTGGADQSLQQGEGSKKGKGKKKK [SRP19]
Key: 0.816
